system: myeloid leukemia patient primary cells Pat.8; assay: cell viability (% survival relative to DMSO control); higher = less cytotoxic; conditions: 10 nM; 72 h
experimental.readout: cell viability (%)

molecule="CN(Cc1cnc2nc(N)nc(N)c2n1)c1ccc(C(=O)N[C@@H](CCC(=O)O)C(=O)O)cc1 [Methotrexate]" units_label=% result_number=89.1
molecule=Cn1cc(-c2ccncc2)c(-c2ccc(OCc3ccc4ccccc4n3)cc2)n1 units_label=% result_number=89.1
molecule="C=CCN(C)CCCCCCOc1ccc(C(=O)c2ccc(Br)cc2)c(F)c1.O=C(O)/C=C/C(=O)O [Ro 48-8071 fumarate]" units_label=% result_number=96.9
molecule=O=c1cc(N2CCOCC2)oc2c(-c3ccccc3)cccc12 units_label=% result_number=86
molecule="C[C@]12C=CC(=O)C=C1CC[C@@H]1[C@@H]2[C@@H](O)C[C@@]2(C)[C@H]1CC[C@]2(O)C(=O)CO [Prednisolone]" units_label=% result_number=70.1

* * *

test system: MOLM-13; assay: cell viability (% survival relative to DMSO control, bortezomib = 0%); higher = less cytotoxic; conditions: 10 nM; 72 h
experimental.readout: cell viability (%)

input_smiles=CN1CCN(CCCN2c3ccccc3Sc3ccc(C(F)(F)F)cc32)CC1 measured_target=MOLM-13 experimental_readout="cell viability" units_label=% result_number=85.4
input_smiles=CCCc1nc(C)c2c(=O)nc(-c3cc(S(=O)(=O)N4CCN(CC)CC4)ccc3OCC)[nH]n12 measured_target=MOLM-13 experimental_readout="cell viability" units_label=% result_number=123
input_smiles=CCOC(=O)c1sc(NC(=O)c2ccco2)c(SC#N)c1C measured_target=MOLM-13 experimental_readout="cell viability" units_label=% result_number=82.9
input_smiles=CC(=O)Nc1nc(C)c(-c2ccc(Cl)c(S(=O)(=O)NCCO)c2)s1 measured_target=MOLM-13 experimental_readout="cell viability" units_label=% result_number=111
input_smiles=CO[C@H]1C[C@@H]2CC[C@@H](C)[C@@](O)(O2)C(=O)C(=O)N2CCCC[C@H]2C(=O)O[C@H]([C@H](C)C[C@@H]2CC[C@@H](OCCO)[C@H](OC)C2)CC(=O)[C@H](C)/C=C(\C)[C@@H](O)[C@@H](OC)C(=O)[C@H](C)C[C@H](C)/C=C/C=C/C=C/1C measured_target=MOLM-13 experimental_readout="cell viability" units_label=% result_number=38.1
input_smiles=Cc1[nH]nc(C(F)(F)F)c1Cc1sc2c(c1C(=O)N1C[C@](C)(O)CO1)c(=O)n(C)c(=O)n2C(C)C measured_target=MOLM-13 experimental_readout="cell viability" units_label=% result_number=120

* * *

The reader will find reported cell viability values listed item by item below.
tested on: HEL; assay: cell viability (% survival relative to DMSO control, bortezomib = 0%); higher = less cytotoxic; details: 10 nM; 72 h
experimental.readout: cell viability (%)

molecule="O=c1cc(-c2ccccc2)oc2c1ccc1ccccc12 [Alpha-Naphtoflavone]" units_label=% result_number=95.6
molecule="N#Cc1ccc(N(Cc2ccc(Br)cc2)n2cnnc2)cc1 [YM511]" units_label=% result_number=104
molecule="CO[C@H]1C[C@@H]2CC[C@@H](C)[C@@](O)(O2)C(=O)C(=O)N2CCCC[C@H]2C(=O)O[C@H]([C@H](C)C[C@@H]2CC[C@@H](OC(=O)C(C)(CO)CO)[C@H](OC)C2)CC(=O)[C@H](C)/C=C(\\C)[C@@H](O)[C@@H](OC)C(=O)[C@H](C)C[C@H](C)/C=C/C=C/C=C/1C [Temsirolimus]" units_label=% result_number=85.3
molecule="CCCCCN(C)CCC(O)(P(=O)(O)O)P(=O)(O)O [Ibandronate]" units_label=% result_number=105
molecule="Cc1cccc(Nc2cc(Cl)nc(SCC(=O)O)n2)c1C [Pirinixic acid]" units_label=% result_number=100

* * *

tested on: K-562; experiment: cell viability (% survival relative to DMSO control, bortezomib = 0%); higher = less cytotoxic; details: 1 nM; 72 h
Counter-ions that a name gives are not always drawn.
experimental.readout: cell viability (%)

compound="CCN(CC)C(=S)SSC(=S)N(CC)CC [Disulfiram]" experimental_readout="cell viability" units_label=% result_number=90.2
compound="CC[C@H](C)[C@H](N)C(=O)N1CCSC1 [P32/98]" experimental_readout="cell viability" units_label=% result_number=101
compound="O=C(O)CC[N+](=O)[O-] [3-nitropropionic acid]" experimental_readout="cell viability" units_label=% result_number=112
compound="CCN(CCO)CCCC(C)Nc1ccnc2cc(Cl)ccc12 (stereo not drawn) [Hydroxychloroquine sulfate]" experimental_readout="cell viability" units_label=% result_number=84.1
compound="Cc1[nH]nc(C(F)(F)F)c1Cc1sc2c(c1C(=O)N1C[C@](C)(O)CO1)c(=O)n(C)c(=O)n2C(C)C [AZD3965]" experimental_readout="cell viability" units_label=% result_number=101
compound="CCn1c(=Cc2cccc[n+]2CC)sc(=C2Sc3ccccc3N2C)c1=O [MKT 077]" experimental_readout="cell viability" units_label=% result_number=109
compound="Cc1ccc(-c2cc(C(F)(F)F)nn2-c2ccc(S(N)(=O)=O)cc2)cc1 [Celecoxib]" experimental_readout="cell viability" units_label=% result_number=96.3
compound="CC/C=C\\C[C@H]1C(=O)CC[C@@H]1CC(=O)OC [Methyl jasmonate]" experimental_readout="cell viability" units_label=% result_number=90.2
compound="COC(=O)c1cc2c(C(F)(F)F)cc(-c3ccccc3)cc2n1O [NHI-2]" experimental_readout="cell viability" units_label=% result_number=98.8
compound="OC[C@H]1NC[C@H](O)[C@@H](O)[C@@H]1O [Duvoglustat]" experimental_readout="cell viability" units_label=% result_number=90.3
compound="CC(=O)Nc1nc(C)c(-c2ccc(Cl)c(S(=O)(=O)NCCO)c2)s1 [PIK93]" experimental_readout="cell viability" units_label=% result_number=134
compound="Cc1cc(C(=O)NNCc2ccccc2)no1 [Isocarboxazid]" experimental_readout="cell viability" units_label=% result_number=116
compound="C=CCN(C)CCCCCCOc1ccc(C(=O)c2ccc(Br)cc2)c(F)c1.O=C(O)/C=C/C(=O)O [Ro 48-8071 fumarate]" experimental_readout="cell viability" units_label=% result_number=87
compound="c1cc(-c2cnn3cc(-c4ccc(OCCN5CCCCC5)cc4)cnc23)ccn1 [Dorsomorphin]" experimental_readout="cell viability" units_label=% result_number=94.2
compound="O=c1cc(-c2ccccc2)oc2c1ccc1ccccc12 [Alpha-Naphtoflavone]" experimental_readout="cell viability" units_label=% result_number=95.8
compound="CCc1oc2ccccc2c1C(=O)c1cc(Br)c(O)c(Br)c1 [Benzbromarone]" experimental_readout="cell viability" units_label=% result_number=117
compound=CN(CCCOc1ccc(Cc2ccccc2)cc1)CCC(=O)O experimental_readout="cell viability" units_label=% result_number=103
compound="N#Cc1ccc(N(Cc2ccc(Br)cc2)n2cnnc2)cc1 [YM511]" experimental_readout="cell viability" units_label=% result_number=107

* * *

The reader will find reported cell viability values listed item by item below.
tested on: HL-60; assay: cell viability (% survival relative to DMSO control); higher = less cytotoxic; conditions: 10 µM; 72 h; co-treatment: AZD3965 100 nM
Where a name gives a salt, the structure may show the parent alone.
experimental.readout: cell viability (%)

compound=Cc1nc(-c2ccccc2)sc1C(=O)Nc1ccc(S(N)(=O)=O)cc1 result_number=100
compound="c1cc(-c2cnn3cc(-c4ccc(OCCN5CCCCC5)cc4)cnc23)ccn1 [Dorsomorphin]" result_number=56.2
compound="CO[C@H]1C[C@@H]2CC[C@@H](C)[C@@](O)(O2)C(=O)C(=O)N2CCCC[C@H]2C(=O)O[C@H]([C@H](C)C[C@@H]2CC[C@@H](OCCO)[C@H](OC)C2)CC(=O)[C@H](C)/C=C(\\C)[C@@H](O)[C@@H](OC)C(=O)[C@H](C)C[C@H](C)/C=C/C=C/C=C/1C [Everolimus]" result_number=83.2
compound="CC[C@H](C)[C@H](N)C(=O)N1CCSC1 [P32/98]" result_number=95.6
compound=CN(CCCOc1ccc(Cc2ccccc2)cc1)CCC(=O)O result_number=99.5
compound="CCc1oc2ccccc2c1C(=O)c1cc(Br)c(O)c(Br)c1 [Benzbromarone]" result_number=99.8
compound="Cc1c(Cl)cccc1S(=O)(=O)Nc1nc(CC(=O)N2CCN(C)CC2)cs1 [BVT-2733]" result_number=99.4
compound="Cc1cccc(Nc2cc(Cl)nc(SCC(=O)O)n2)c1C [Pirinixic acid]" result_number=98
compound="CN(Cc1cnc2nc(N)nc(N)c2n1)c1ccc(C(=O)N[C@@H](CCC(=O)O)C(=O)O)cc1 [Methotrexate]" result_number=26.8
compound="O=c1cc(-c2ccccc2)oc2c1ccc1ccccc12 [Alpha-Naphtoflavone]" result_number=101
compound="N#Cc1ccnc(N2C(=O)CC[C@H]2C(=O)N(c2cncc(F)c2)[C@H](C(=O)NC2CC(F)(F)C2)c2ccccc2Cl)c1 [AG-120]" result_number=102
compound="CCOC(=O)c1ccc(-c2ccc(OC(=O)N(C)Cc3cccc(-c4ccncc4)c3)cc2)cc1 [WWL 113]" result_number=101
compound="CCN(CCO)CCCC(C)Nc1ccnc2cc(Cl)ccc12 (centres undefined) [Hydroxychloroquine sulfate]" result_number=101
compound="CC/C=C\\C[C@H]1C(=O)CC[C@@H]1CC(=O)OC [methyl jasmonate]" result_number=106
compound="C[C@]12C=CC(=O)C=C1CC[C@@H]1[C@@H]2[C@@H](O)C[C@@]2(C)[C@H]1CC[C@]2(O)C(=O)CO [Prednisolone]" result_number=96.2
compound="O=C(/C=C/c1ccc(O)c(O)c1)OCCc1ccccc1 [Caffeic acid phenethyl ester]" result_number=27.4
compound="C[C@H]1c2cccc(O)c2C(=O)C2C(=O)[C@]3(O)C(=O)C(C(N)=O)C(=O)[C@@H](N(C)C)[C@@H]3[C@@H](O)[C@@H]21 (some centres undefined) [Doxycycline]" result_number=113
compound="C=CCN(C)CCCCCCOc1ccc(C(=O)c2ccc(Br)cc2)c(F)c1.O=C(O)/C=C/C(=O)O [Ro 48-8071 fumarate]" result_number=44.1
compound="O=C(NCCN1CCC(n2c(O)nc3ccccc32)CC1)c1cc2cc(F)ccc2[nH]1 [FIPI]" result_number=107
compound=O=C1C(SCCO)=C(SCCO)C(=O)c2ccccc21 result_number=-0.491
compound="CCOC(=O)c1sc(NC(=O)c2ccco2)c(SC#N)c1C [CBR-5884]" result_number=102
compound="CN(CCOc1ccc(Cc2sc(O)nc2O)cc1)c1ccccn1 [Rosiglitazone]" result_number=102
compound="O=C(O)CC[N+](=O)[O-] [3-nitropropionic acid]" result_number=97.6
compound="C=CC(=O)c1ccc(O)cc1 [4-Acryloylphenol]" result_number=63.5
